Molecular target: Legumain (Schistosoma mansoni)
Sequence (Q9NFY9 whole entry): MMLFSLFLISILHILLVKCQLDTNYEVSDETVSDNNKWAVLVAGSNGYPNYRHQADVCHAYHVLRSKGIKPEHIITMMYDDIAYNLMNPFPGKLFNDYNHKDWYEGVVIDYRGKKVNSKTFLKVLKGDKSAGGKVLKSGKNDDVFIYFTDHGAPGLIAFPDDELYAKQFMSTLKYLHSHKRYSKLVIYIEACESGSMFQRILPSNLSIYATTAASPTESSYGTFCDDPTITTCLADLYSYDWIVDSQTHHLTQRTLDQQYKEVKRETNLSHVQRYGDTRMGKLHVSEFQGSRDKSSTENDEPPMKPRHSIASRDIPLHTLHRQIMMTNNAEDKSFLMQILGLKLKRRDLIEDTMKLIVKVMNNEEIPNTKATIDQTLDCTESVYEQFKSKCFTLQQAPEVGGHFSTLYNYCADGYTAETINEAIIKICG
Test: AE Enzyme Inhibition Assay
Details: 25 °C
# maps each entry to its IC50

compound	IC50, nM
C[C@H](NC(=O)OCc1ccccc1)C(=O)N[C@@H](C)C(=O)NN(CC(N)=O)C(=O)C=CC(=O)N1CCCc2ccccc21	70
C[C@H](NC(=O)OCc1ccccc1)C(=O)N[C@@H](C)C(=O)NN(CC(N)=O)C(=O)C=CC(=O)N(C)C(Cc1ccccc1)C(=O)N(C)CCc1ccccc1 (some centres undefined)	750
C[C@H](NC(=O)OCc1ccccc1)C(=O)N[C@@H](C)C(=O)NN(CC(N)=O)C(=O)C=CC(=O)N1CC=C(c2ccccc2)CC1	750
C[C@H](NC(=O)OCc1ccccc1)C(=O)N[C@@H](C)C(=O)NN(CC(N)=O)C(=O)C=CC(=O)N1CCc2ccccc2C1	200

---

Molecular target: Clan CD, family C13, asparaginyl endopeptidase-like cysteine peptidase (Trichomonas vaginalis (strain ATCC PRA-98 / G3))
Sequence (A2DYT2 whole entry): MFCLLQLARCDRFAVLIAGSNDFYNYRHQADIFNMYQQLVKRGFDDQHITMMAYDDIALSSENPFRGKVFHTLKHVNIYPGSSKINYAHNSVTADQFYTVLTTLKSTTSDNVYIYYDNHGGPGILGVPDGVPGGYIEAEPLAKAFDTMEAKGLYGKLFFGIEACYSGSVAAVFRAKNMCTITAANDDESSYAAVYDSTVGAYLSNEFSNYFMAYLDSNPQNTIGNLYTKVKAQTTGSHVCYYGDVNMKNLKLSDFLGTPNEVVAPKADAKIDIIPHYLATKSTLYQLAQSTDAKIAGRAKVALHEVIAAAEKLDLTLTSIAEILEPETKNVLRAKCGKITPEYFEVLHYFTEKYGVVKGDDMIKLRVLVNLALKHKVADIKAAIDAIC
Experiment: AE Enzyme Inhibition Assay
Details: pH 6.8; 22 °C
attributeMeasured: log10 IC50 (log10 of the value in nM)

>>> print(df.to_string())
                                 chemsmiles  attributemeasured  measured
0  C[C@H](NC(=O)OCc1ccccc1)C(=O)N[C@@H](C)C(=O)NN(CC(N)=O)C(=O)C=CC(=O)OCc1ccccc1         log10 IC50      0.70
1  C[C@H](NC(=O)OCc1ccccc1)C(=O)N[C@@H](C)C(=O)NN(CC(N)=O)C(=O)C=CC(=O)NCc1ccc(F)cc1         log10 IC50      1.88
2  C[C@H](NC(=O)OCc1ccccc1)C(=O)N[C@@H](C)C(=O)NN(CC(N)=O)C(=O)C=CC(=O)NCCc1ccccc1         log10 IC50      1.00
3  CCOC(=O)C=CC(=O)N(CC(N)=O)NC(=O)[C@H](C)NC(=O)[C@H](C)NC(=O)OCc1ccccc1         log10 IC50      0.65
4  C[C@H](NC(=O)OCc1ccccc1)C(=O)N[C@@H](C)C(=O)NN(CC(N)=O)C(=O)C=CC(=O)Nc1ccccc1         log10 IC50      1.30
5  C[C@H](NC(=O)OCc1ccccc1)C(=O)N[C@@H](C)C(=O)NN(CC(N)=O)C(=O)C=CC(=O)N(C)c1ccccc1         log10 IC50      0.70
6  CCCCN(CCCC)C(=O)C=CC(=O)N(CC(N)=O)NC(=O)[C@H](C)NC(=O)[C@H](C)NC(=O)OCc1ccccc1         log10 IC50      3.00
7  CCN(CC)C(=O)C=CC(=O)N(CC(N)=O)NC(=O)[C@H](C)NC(=O)[C@H](C)NC(=O)OCc1ccccc1         log10 IC50      3.30
8  C[C@H](NC(=O)OCc1ccccc1)C(=O)N[C@@H](C)C(=O)NN(CC(N)=O)C(=O)C=CC(=O)N1CCCCC1         log10 IC50      2.70
9  C[C@H](NC(=O)OCc1ccccc1)C(=O)N[C@@H](C)C(=O)NN(CC(N)=O)C(=O)C=CC(=O)NCc1ccccc1         log10 IC50      1.00
